Please respond with reported folding stability dG unfold for every item in the list.
- protocol.notes: folding stability dG unfold from chymotrypsin proteolysis; higher = more stable
Answers are plain numbers, in kcal/mol.

See these solved cases before continuing.
| item.sequence | readout | measure.unit | quantitative.readout |
| --- | --- | --- | --- |
| SAGGSAMTIEIEAPVPAGVEVDATALFVTPDGYLYLAEVRSVGPGWARITIPVYRFDDNLDDPDFLSAGGSA [r15_909_TrMRF] | folding stability dG unfold | kcal/mol | 2.19 |
| SAGGSAGGSAGPDVEVVIIPVDPETGEPLDALPIPIPSPEGGLVDEIVKAIPPDRYRVLASAGGSAGGSAGG [r17_339_TrMRF] | folding stability dG unfold | kcal/mol | -0.336 |
| SAGGSAGGSALAEELAAKYPGLQVEVTRVEVEREVTDADGRKRTERVERLEIRVVKPGEELSAGGSAGGSAG [r3_358_TrROS_Hall] | folding stability dG unfold | kcal/mol | -0.0574 |
| SAGGSAGGSADGNKPPEIKINLEVERHPNGMVEITATLHWPGGKEFPVRIMYNPDKIFIEISAGGSAGGSAG [r3_259_TrROS] | folding stability dG unfold | kcal/mol | 3.4 |
| SAGGSAGGSASMNVLVVRTKPDGTPEVTEVETGDPEKAKEEIAKRSNVTTPEGTVTVELTGVSAGGSAGGSA [r18_457_JUSTAS] | folding stability dG unfold | kcal/mol | -1.06 |

// switching to the query sequence
Inquiry: I would be grateful if you could share the reported folding stability dG unfold for SAGGSAGGSATRVEVEWKDGYLVITKYETLPNGEWKEVKTIVIPIEGNDPIAIEKAKEVIEKLSAGGSAGGS [r12_169_JUSTAS] .
Reply text: 2.89
